Data provenance is the supplement of paper PMC10567573.

B1: DCAF4 (parent)
chain: PGIDRPGMLCSFRIPGAWSCAWSL

Variants of: B1
experiment-notes: protein stability index of a GFP-peptide fusion (GPS, HEK-293T) (PSI 1-6); higher = more stable;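 note: lentivirally expressed fusions sorted by FACS into six bins by GFP to DsRed ratio, PSI derived from sequencing read proportions per bin multiplied by bin number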
cond: c terminus: a fixed tail appended
Task for the reader: assign each of the following variants its reported protein stability index.
The response must contain the number and no unit.

Reported protein stability index of PGINRPGMLCSFRIPGAWSCAWSL [D4N] : 2.05

Reported protein stability index of PGIDRPGMLCSFRIPGAWSCAWSY [L24Y] : 1.96

Reported protein stability index of PGIDRPGMLCSFRILGAWSCAWSL [P15L] : 2.04

Reported protein stability index of PGIDKPGMLCSFRIPGAWSCAWSL [R5K] : 2.04

Reported protein stability index of PGIDRPGMLCSFDIPGAWSCAWSL [R13D] : 1.97

Reported protein stability index of PGIDRPGMLCSFRIPGAWSCATSL [W22T] : 1.95

Reported protein stability index of PGIDRPGMLCSFRIPGAWSCAGSL [W22G] : 1.95
